PROTOCOL DETAILS: method code SF-AS, from DOI: 10.1021/jf00106a008
EXPERIMENTAL SETUP: pH 7.3
ASSAY ENDPOINT: logD

The examples below pair each entry with its known result.
CCCCCCCCCCOn1c(=O)[nH]c(C)c(Br)c1=O; 4.65
C#CCOn1c(=O)[nH]c(C)c(Br)c1=O; -0.1
CCCOn1c(=O)c(Br)c(C)n(C)c1=O; 0.72

1 = Cc1[nH]c(=O)n(OCC(C)C)c(=O)c1Br
2 = CCOn1c(=O)[nH]c(C)c(Br)c1=O
Field: entry with larger logD (options 1 / 2 ). Return value: the label identifying the chosen record.
1
(1: 1.23, 2: 0.11)

Value source: the SangsterLogP compilation
